- Subject of test: endogenous human HER3 on human cancer cells (SK-Br-3, MCF7, BT-474) (human, UniProt P21860 20-1342)
- Method summary: cell-based or functional assay
Endpoint label: % inhibition of proliferation, MCF7 (neuregulin stimulated), 10 µg/ml IgG (%)
Give the value in % but do not write % after it.

Known % inhibition of proliferation, MCF7 (neuregulin stimulated), 10 µg/ml IgG results, listed for orientation:
Binder	Numeric result
MOR10703 (antibody, human IgG1, kappa, V domains shown) VH: EVQLLESGGGLVQPGGSLRLSCAASGFTFSSYAMSWVRQAPGKGLEWVSAINSQGKSTYYADSVKGRFTISRDNSKNTLYLQMNSLRAEDTAVYYCARWGDEGFDIWGQGTLVTVSS VL: DIQMTQSPSSLSASVGDRVTITCRASQGISNWLAWYQQKPGKAPKLLIYGASSLQSGVPSRFSGSGSGTDFTLTISSLQPEDFATYYCQQYSSFPTTFGQGTKVEIKR	81
MOR09974 (antibody, human IgG1, kappa, V domains shown) VH: QVQLVESGGGLVQPGGSLRLSCAASGFTFSSYAMSWVRQAPGKGLEWVSVINPSGNFTNYADSVKGRFTISRDNSKNTLYLQMNSLRAEDTAVYYCARWGDEGFDIWGQGTLVTVSS VL: DIQMTQSPSSLSASVGDRVTITCRASQGISNWLAWYQQKPGKAPKLLIYGASSLQSGVPSRFSGSGSGTDFTLTISSLQPEDFAVYYCQQYSSFPTTFGQGTKVEIKR	20
MOR09824 (antibody, human IgG1, kappa, V domains shown) VH: QVQLVESGGGLVQPGGSLRLSCAASGFTFSSYAMSWVRQAPGKGLEWVSVISAWGHVKYYADSVKGRFTISRDNSKNTLYLQMNSLRAEDTAVYYCARWGDEGFDIWGQGTLVTVSS VL: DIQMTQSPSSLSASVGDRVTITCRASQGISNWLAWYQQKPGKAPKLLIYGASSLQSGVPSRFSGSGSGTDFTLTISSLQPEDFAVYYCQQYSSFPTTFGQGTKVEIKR	82

Consider now this further binder.
[in] Note % inhibition of proliferation, MCF7 (neuregulin stimulated), 10 µg/ml IgG for the binder shown: MOR09825 (antibody, human IgG1, kappa, V domains shown) VH: QVQLVESGGGLVQPGGSLRLSCAASGFTFSSYAMSWVRQAPGKGLEWVSAINSQGKSTYYADSVKGRFTISRDNSKNTLYLQMNSLRAEDTAVYYCARWGDEGFDIWGQGTLVTVSS VL: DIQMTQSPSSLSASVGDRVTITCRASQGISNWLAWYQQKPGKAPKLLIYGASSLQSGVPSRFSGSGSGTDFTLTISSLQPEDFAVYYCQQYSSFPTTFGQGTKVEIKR
[out] 63
